Reported Percent Effect is given for each of the following compounds.
measured target: Tyrosyl-tRNA synthetase, putative (Trypanosoma cruzi (strain CL Brener))
assay comment: Trypanosoma cruzi tyrosyl tRNA synthetase (TcYRS) _High Tyrosine SOP
Type: functional
Set-up: scale not given: in the data most compounds retested in dose-response had high values
particulars: 30 µM
measurement label: Percent Effect (%)

compound	measured target	reported value
CCCN(CCO)C(=O)C1CCC(=O)N(CCc2ccc(Cl)cc2)C1 (stereo unspecified)	Tyrosyl-tRNA synthetase, putative (Trypanosoma cruzi (strain CL Brener))	4.21
Cc1nn(C)cc1-c1cc(C(F)(F)F)c2c(C)nn(CC(=O)O)c2n1	Tyrosyl-tRNA synthetase, putative (Trypanosoma cruzi (strain CL Brener))	-1.06
N#Cc1ccc(OCCOc2ccccc2C(=O)N2CCOCC2)cc1	Tyrosyl-tRNA synthetase, putative (Trypanosoma cruzi (strain CL Brener))	4.3
Cc1nc(CN2CCCC(NCCOc3ccccc3)C2)no1 (stereo unspecified)	Tyrosyl-tRNA synthetase, putative (Trypanosoma cruzi (strain CL Brener))	2.46
CC(NC(=O)N1CCN(c2ccccc2)CC1)c1nncn1C (stereo unspecified)	Tyrosyl-tRNA synthetase, putative (Trypanosoma cruzi (strain CL Brener))	3.68
CC(C)c1nccn1-c1cccc(C2CCCN(C3CCCC3)C2)n1 (stereo unspecified)	Tyrosyl-tRNA synthetase, putative (Trypanosoma cruzi (strain CL Brener))	6.35
CCN1C(=O)CCCC12CCCN(C(=O)c1cnccn1)C2 (stereo unspecified)	Tyrosyl-tRNA synthetase, putative (Trypanosoma cruzi (strain CL Brener))	2.9
c1cc2n(n1)CC(CNCc1ccc(OC3CCCCC3)nc1)CN2 (stereo unspecified)	Tyrosyl-tRNA synthetase, putative (Trypanosoma cruzi (strain CL Brener))	9.71
CS(=O)(=O)c1ccc(NC(=O)N2CCc3sccc3C2)cn1	Tyrosyl-tRNA synthetase, putative (Trypanosoma cruzi (strain CL Brener))	5.94
O=C(NCC(O)c1cccs1)c1cccc(Cl)c1 (stereo unspecified)	Tyrosyl-tRNA synthetase, putative (Trypanosoma cruzi (strain CL Brener))	6.45
CC(C)OCCOCc1cccc(NC(=O)NCCn2ccnc2)c1	Tyrosyl-tRNA synthetase, putative (Trypanosoma cruzi (strain CL Brener))	-1.07
O=C(Cc1csc(-c2nnc[nH]2)n1)N1CCCC1Cn1cccn1 (stereo unspecified)	Tyrosyl-tRNA synthetase, putative (Trypanosoma cruzi (strain CL Brener))	2.63
CCc1nc(CN2CCCN(C(=O)CCSC)CC2)cs1	Tyrosyl-tRNA synthetase, putative (Trypanosoma cruzi (strain CL Brener))	0.478
COc1ccc(OCC(=O)NC(C)c2ccccc2)c(C(=O)O)c1 (stereo unspecified)	Tyrosyl-tRNA synthetase, putative (Trypanosoma cruzi (strain CL Brener))	-1.07
O=C(NCCn1ccnc1)NCC(c1ccco1)N1CCCCC1 (stereo unspecified)	Tyrosyl-tRNA synthetase, putative (Trypanosoma cruzi (strain CL Brener))	2.86
CCN1CCC(NC(=O)CN2CCCC2Cn2cncn2)CC1 (stereo unspecified)	Tyrosyl-tRNA synthetase, putative (Trypanosoma cruzi (strain CL Brener))	3.12
CCc1cc(N2CCSCC2)n2nc(C)c(C)c2n1	Tyrosyl-tRNA synthetase, putative (Trypanosoma cruzi (strain CL Brener))	-2.73
COC(=O)c1sccc1S(=O)(=O)N1CCC(Oc2cccnn2)CC1	Tyrosyl-tRNA synthetase, putative (Trypanosoma cruzi (strain CL Brener))	-6.45
CN(C)S(=O)(=O)N1CCN(C(=O)c2ccc3ccn(C)c3c2)CC1	Tyrosyl-tRNA synthetase, putative (Trypanosoma cruzi (strain CL Brener))	2.66
CN(CC1CN(Cc2cn3ccsc3n2)CCO1)c1cccnn1 (stereo unspecified)	Tyrosyl-tRNA synthetase, putative (Trypanosoma cruzi (strain CL Brener))	4.76
CC(C)c1noc(CN2CCN(C(=O)c3ccccc3F)CC2)n1	Tyrosyl-tRNA synthetase, putative (Trypanosoma cruzi (strain CL Brener))	7.92
O=S(=O)(NCCN1CCCCC1Cn1cncn1)c1ccccc1 (stereo unspecified)	Tyrosyl-tRNA synthetase, putative (Trypanosoma cruzi (strain CL Brener))	1.96
c1csc(CN2CCOCC3(CCN(C4CCOCC4)C3)C2)n1 (stereo unspecified)	Tyrosyl-tRNA synthetase, putative (Trypanosoma cruzi (strain CL Brener))	2.63
CCN(CC)C(=O)c1nnc2ccc(N3CCOCC3)cc2n1	Tyrosyl-tRNA synthetase, putative (Trypanosoma cruzi (strain CL Brener))	3.17
Cn1cc(C(=O)N2CCCC(n3cccn3)C2)c2ccccc21 (stereo unspecified)	Tyrosyl-tRNA synthetase, putative (Trypanosoma cruzi (strain CL Brener))	2.63
CCn1ccnc1CN1CCCN(C(=O)Cn2nc(C)cc2C)CC1	Tyrosyl-tRNA synthetase, putative (Trypanosoma cruzi (strain CL Brener))	-1.91
COc1ccc(C)cc1CN1CCCC1c1noc(C2CC2)n1 (stereo unspecified)	Tyrosyl-tRNA synthetase, putative (Trypanosoma cruzi (strain CL Brener))	9.9
CC(C)n1ccnc1CN1CCCN(C(=O)c2cccnc2O)CC1	Tyrosyl-tRNA synthetase, putative (Trypanosoma cruzi (strain CL Brener))	10.1
Cn1cc(Cl)cc1C(=O)N1CCCN(Cc2cccs2)CC1	Tyrosyl-tRNA synthetase, putative (Trypanosoma cruzi (strain CL Brener))	4.41
Cc1nc(C2CCCN(C(=O)CCCn3ccnc3C)C2)no1 (stereo unspecified)	Tyrosyl-tRNA synthetase, putative (Trypanosoma cruzi (strain CL Brener))	-0.971
Cc1cc(C)n(CC2CCCN2CCCS(=O)(=O)N(C)C)n1 (stereo unspecified)	Tyrosyl-tRNA synthetase, putative (Trypanosoma cruzi (strain CL Brener))	4.76
CCCOCC(=O)NS(=O)(=O)c1ccc2c(c1)OCCCO2	Tyrosyl-tRNA synthetase, putative (Trypanosoma cruzi (strain CL Brener))	-2.46
Cc1ccc(NC2CCN(C(=O)Cn3nc(C)cc3C)CC2)nn1	Tyrosyl-tRNA synthetase, putative (Trypanosoma cruzi (strain CL Brener))	3.43
CC(Cn1ccnc1)NC(=O)NCCc1ccc2c(c1)OCCO2 (stereo unspecified)	Tyrosyl-tRNA synthetase, putative (Trypanosoma cruzi (strain CL Brener))	4.85
Cc1oc(-c2ccsc2)nc1CC(=O)NCCS(C)(=O)=O	Tyrosyl-tRNA synthetase, putative (Trypanosoma cruzi (strain CL Brener))	-1.07
Cc1ncccc1OC1(C(=O)NCCNc2ccccc2)CCNCC1	Tyrosyl-tRNA synthetase, putative (Trypanosoma cruzi (strain CL Brener))	5.82
